condition-summary: buffer; pH 7.4; 200.0 µM
Think of 20 µg/mL as a floor: if solubility kinetic stands on it or above, it is criterion met; beneath it, criterion not met.

Is reported solubility kinetic greater than or equal to 20 µg/mL here: `Cc1ccc(NC(=O)c2cccc3ccccc23)cc1`
criterion not met

Is reported solubility kinetic greater than or equal to 20 µg/mL here: CC(C)CC1NC(=O)N(CC(=O)Nc2cc(S(=O)(=O)N3CCOCC3)ccc2Cl)C1=O (stereo not given)
criterion not met

Is reported solubility kinetic greater than or equal to 20 µg/mL here: `CC(=O)c1cccc(Nc2cc(C)nc3ccccc23)c1.Cl`
criterion met

Is reported solubility kinetic greater than or equal to 20 µg/mL here: `C/C(=N\NC(N)=O)c1c(O)n(C)c(=O)n(C)c1=O`
criterion met

Is reported solubility kinetic greater than or equal to 20 µg/mL here: `O=C(NC(=S)Nc1ccc(CN2CCOCC2)cc1)c1ccco1`
criterion met

Is reported solubility kinetic greater than or equal to 20 µg/mL here: `CN1CCN(C(=O)c2ccc(F)c(F)c2)CC1`
criterion met

Is reported solubility kinetic greater than or equal to 20 µg/mL here: `CSc1ccc(/C=C/C(=O)NC(=O)c2ccccc2O)cc1`
criterion not met

Is reported solubility kinetic greater than or equal to 20 µg/mL here: `O=C(NCCc1ccccc1)c1ccc(Cl)cc1[N+](=O)[O-]`
criterion met

Is reported solubility kinetic greater than or equal to 20 µg/mL here: `CC(=O)N1CCN(C2=NC(=O)/C(=C\c3cccs3)S2)CC1`
criterion met

Is reported solubility kinetic greater than or equal to 20 µg/mL here: `O=C(COC(=O)COc1ccc(Cl)cc1Br)NC1CC1`
criterion met

Is reported solubility kinetic greater than or equal to 20 µg/mL here: `Clc1ncccc1OCc1ccccc1`
criterion not met

Is reported solubility kinetic greater than or equal to 20 µg/mL here: COc1cccc(NC(=O)CN(C)C(=O)c2cccc(S(=O)(=O)N3CC4(C)CC3CC(C)(C)C4)c2)c1 (stereo not given)
criterion not met

Is reported solubility kinetic greater than or equal to 20 µg/mL here: `O=c1[nH]cnc2sc3c(c12)CCC3`
criterion met

Is reported solubility kinetic greater than or equal to 20 µg/mL here: `CC(=O)NS(=O)(=O)c1ccc(NC(=O)[C@@H]2CCCN2S(=O)(=O)c2ccc(Cl)cc2)cc1`
criterion met

Is reported solubility kinetic greater than or equal to 20 µg/mL here: `CCOC(=O)C1CCN(S(=O)(=O)c2ccccc2)CC1`
criterion met

Is reported solubility kinetic greater than or equal to 20 µg/mL here: Cc1cc(NC(=O)CN2C(=O)NC(CCc3ccccc3)C2=O)no1 (stereo not given)
criterion met

Is reported solubility kinetic greater than or equal to 20 µg/mL here: Cc1ccc(C(C)NC(=O)c2cccs2)cc1 (stereo not given)
criterion met

Is reported solubility kinetic greater than or equal to 20 µg/mL here: `Cc1c(C(=O)CN2CCN(c3ccccc3)CC2)c2ccccc2n1C`
criterion met

Is reported solubility kinetic greater than or equal to 20 µg/mL here: `CCOc1ccccc1/C=N/OCC(=O)NCc1ccc(F)cc1`
criterion met

Is reported solubility kinetic greater than or equal to 20 µg/mL here: OC(c1ccc(F)cc1)C(CN1CCOCC1)c1ccccc1 (stereo not given)
criterion met

Is reported solubility kinetic greater than or equal to 20 µg/mL here: O=[N+]([O-])c1ccc(S(=O)(=O)NCC2CC3CCC2C3)cc1 (stereo not given)
criterion not met

Is reported solubility kinetic greater than or equal to 20 µg/mL here: `COCCCNC(=O)c1ccc(CN2CCc3ccccc3C2)cc1`
criterion met

Is reported solubility kinetic greater than or equal to 20 µg/mL here: CC(CCc1ccccc1)NC(=O)CCC(=O)N1CCC(C(N)=O)CC1 (stereo not given)
criterion met

Is reported solubility kinetic greater than or equal to 20 µg/mL here: `Cc1ccc(NC(=O)[C@@H]2CCCN2S(=O)(=O)c2ccc(Cl)cc2)cc1`
criterion not met

Is reported solubility kinetic greater than or equal to 20 µg/mL here: `O=C(COc1ccc(-n2ccnc2)cc1)Nc1cccc(F)c1`
criterion met

Is reported solubility kinetic greater than or equal to 20 µg/mL here: C=CCN1C2CCCC1CC(NC(=S)Nc1ccc(Cl)cc1)C2 (stereo not given)
criterion met

Is reported solubility kinetic greater than or equal to 20 µg/mL here: `O=C(CN1C(=O)CCC1=O)Nc1cccc2c1C(=O)NC2=O`
criterion met

Is reported solubility kinetic greater than or equal to 20 µg/mL here: `CCOC(=O)N1CCN(CC(=O)Nc2ccc(F)cc2)CC1`
criterion met

Is reported solubility kinetic greater than or equal to 20 µg/mL here: `Cc1ccc(CNCC(O)(c2ccccc2)c2ccccc2)cc1`
criterion not met

Is reported solubility kinetic greater than or equal to 20 µg/mL here: `O=S(=O)(Nc1ccc2c(c1)OCO2)c1ccc(F)c(F)c1`
criterion met

Is reported solubility kinetic greater than or equal to 20 µg/mL here: `CCc1ccccc1NC(=O)CNC(=O)c1ccc(OCc2cn3ccccc3n2)cc1`
criterion not met

Is reported solubility kinetic greater than or equal to 20 µg/mL here: `O=S(=O)(O)c1cnccc1Nc1cccc(C(F)(F)F)c1`
criterion met

Is reported solubility kinetic greater than or equal to 20 µg/mL here: `O=S(=O)(Nc1ccc(Cl)c(Cl)c1)N1CCOCC1`
criterion met

Is reported solubility kinetic greater than or equal to 20 µg/mL here: CC(CCc1ccccc1)NC(=O)c1ccccc1C(=O)O (stereo not given)
criterion met

Is reported solubility kinetic greater than or equal to 20 µg/mL here: `c1ccc(-c2noc(CC3CCCCC3)n2)nc1`
criterion met

Is reported solubility kinetic greater than or equal to 20 µg/mL here: `NC(=O)c1ccccc1NC(=O)c1ccc2c(c1)OCO2`
criterion not met

Is reported solubility kinetic greater than or equal to 20 µg/mL here: Cc1nc(C)c(C(=O)C2=C(O)C(=O)N(CCN(C)C)C2c2ccco2)s1 (stereo not given)
criterion met

Is reported solubility kinetic greater than or equal to 20 µg/mL here: `O=C(COC(=O)/C=C/c1ccc(Cl)cc1Cl)NCc1ccco1`
criterion not met

Is reported solubility kinetic greater than or equal to 20 µg/mL here: O=C(NCC1CCCO1)C1CC(=O)N(c2ccc(Cl)cc2)C1 (stereo not given)
criterion met
